Source: patent US20260184675A1

- System: pest eggs of Tetranychus cinnabarinus
- Test: Effect on hatching of pest eggs of Tetranychus cinnabarinus, leaf disc method
- Assay type: in vivo
- Experimental conditions: 1 mg/L, Replicate 1
Given measured Number of hatched larvae 7 days after insecticide delivery, output TRUE if it is greater than or equal to 60 and FALSE if not.

{"Molecule": "CC(C)(COc1ccc(Cl)cc1Cl)OS(=O)OCCF (stereo not shown) [Compound R-10]", "Qualitative label": "TRUE"}
{"Molecule": "C[C@@H](COS(=O)OCCF)Oc1ccc(Cl)cc1Cl (stereo partly drawn) [1-(S,S)]", "Qualitative label": "TRUE"}
{"Molecule": "CCC(COc1ccc(Cl)cc1Cl)OS(=O)OCCF [19-(R,R)]", "Qualitative label": "FALSE"}
{"Molecule": "CCC(COc1ccc(Cl)cc1Cl)OS(=O)OCCF (stereo not shown) [Compound 19]", "Qualitative label": "TRUE"}
{"Molecule": "CC(COc1ccc(Cl)cc1Cl)OS(=O)OCCF [1′-(R,R)]", "Qualitative label": "FALSE"}
{"Molecule": "C[C@@H](COS(=O)OCCF)Oc1ccc(Cl)cc1Cl (stereo partly drawn) [1-(S,R)]", "Qualitative label": "TRUE"}
{"Molecule": "CC[C@@H](COS(=O)OCCF)Oc1ccc(Cl)cc1Cl (stereo partly drawn) [19′-(S,S)]", "Qualitative label": "FALSE"}
{"Molecule": "CC(COc1ccc(Cl)cc1Cl)OS(=O)OCCF [1′-(R,S)]", "Qualitative label": "TRUE"}
{"Molecule": "CCC(COS(=O)OCCF)Oc1ccc(Cl)cc1Cl (stereo not shown) [Compound 19′]", "Qualitative label": "FALSE"}
{"Molecule": "CC(C)(COc1ccc(Cl)cc1Cl)OS(=O)OCCF (stereo not shown) [Compound S-10]", "Qualitative label": "TRUE"}

* * *

Hatching rate (%), Replicate 3 values by entry
- Test system: eggs of Aleyrodidae
- Test: Effect on hatching of eggs of Aleyrodidae, leaf disc method
- Format: in vivo
- Experimental conditions: Aleyrodidae eggs, 10 ppm, 5 days after delivery, replicate 3
Measurement type: Hatching rate (%), Replicate 3

{"Molecule": "CC(COS(=O)OCCF)Oc1ccc(Cl)cc1Cl (stereo not shown)", "Study system": "eggs of Aleyrodidae", "Unit annotation": "%", "Quantitative result": 0.00}
{"Molecule": "CC[C@H](COS(=O)OCCF)Oc1ccc(Cl)cc1Cl (stereo partly drawn) [19′-(R,S)]", "Study system": "eggs of Aleyrodidae", "Unit annotation": "%", "Quantitative result": 11.49}
{"Molecule": "CC[C@H](COc1ccc(Cl)cc1Cl)OS(=O)OCCF (stereo partly drawn) [19-(R,S)]", "Study system": "eggs of Aleyrodidae", "Unit annotation": "%", "Quantitative result": 0.00}
{"Molecule": "CC(C)(COc1ccc(Cl)cc1Cl)OS(=O)OCCF (stereo not shown) [Compound R-10]", "Study system": "eggs of Aleyrodidae", "Unit annotation": "%", "Quantitative result": 9.92}
{"Molecule": "CCC(COS(=O)OCCF)Oc1ccc(Cl)cc1Cl (stereo not shown) [Compound 19′]", "Study system": "eggs of Aleyrodidae", "Unit annotation": "%", "Quantitative result": 0.00}
{"Molecule": "CC[C@@H](COc1ccc(Cl)cc1Cl)OS(=O)OCCF (stereo partly drawn) [19-(S,R)]", "Study system": "eggs of Aleyrodidae", "Unit annotation": "%", "Quantitative result": 0.00}
{"Molecule": "CCC(COS(=O)OCCF)Oc1ccc(Cl)cc1Cl [19′-(R,R)]", "Study system": "eggs of Aleyrodidae", "Unit annotation": "%", "Quantitative result": 0.00}
{"Molecule": "CC(COc1ccc(Cl)cc1Cl)OS(=O)OCCF (stereo not shown)", "Study system": "eggs of Aleyrodidae", "Unit annotation": "%", "Quantitative result": 1.14}
{"Molecule": "CC(C)(COS(=O)OCCF)Oc1ccc(Cl)cc1Cl (stereo not shown) [R-10′]", "Study system": "eggs of Aleyrodidae", "Unit annotation": "%", "Quantitative result": 10.16}
{"Molecule": "CCC(COc1ccc(Cl)cc1Cl)OS(=O)OCCF (stereo not shown)", "Study system": "eggs of Aleyrodidae", "Unit annotation": "%", "Quantitative result": 0.00}

* * *

Hatching rate (%), Replicate 3 values by entry
- System: eggs of Aleyrodidae
- Test: Effect on hatching of eggs of Aleyrodidae, leaf disc method
- Assay type: in vivo
- Experimental conditions: Aleyrodidae eggs, 10 ppm, 5 days after delivery, replicate 3
Measurement type: Hatching rate (%), Replicate 3

{"Molecule": "CC(C)(COc1ccc(Cl)cc1Cl)OS(=O)OCCF (stereo not shown) [Compound 10]", "Quantitative result": 1.61}
{"Molecule": "CC(C)(COS(=O)OCCF)Oc1ccc(Cl)cc1Cl (stereo not shown) [S-10′]", "Quantitative result": 0.00}
{"Molecule": "CC(C)(COc1ccc(Cl)cc1Cl)OS(=O)OCCF (stereo not shown) [Compound S-10]", "Quantitative result": 0.00}
{"Molecule": "CC(C)(COS(=O)OCCF)Oc1ccc(Cl)cc1Cl (stereo not shown) [Compound 10′]", "Quantitative result": 1.05}

* * *

- Test system: pest eggs of Tetranychus cinnabarinus
- Test: Effect on hatching of pest eggs of Tetranychus cinnabarinus, leaf disc method
- Assay type: in vivo
- Experimental conditions: 0.25 mg/L, Replicate 1
Number of hatched larvae 7 days after insecticide delivery vs 20: less than gives 1; not less than gives 0.

{"Compound": "C[C@@H](COS(=O)OCCF)Oc1ccc(Cl)cc1Cl (stereo partly drawn) [1-(S,S)]", "Qualitative label": 0}
{"Compound": "C[C@H](COS(=O)OCCF)Oc1ccc(Cl)cc1Cl (stereo partly drawn) [1-(R,R)]", "Qualitative label": 0}
{"Compound": "CC(C)(COc1ccc(Cl)cc1Cl)OS(=O)OCCF (stereo not drawn) [Compound R-10]", "Qualitative label": 1}
{"Compound": "CC(COc1ccc(Cl)cc1Cl)OS(=O)OCCF [1′-(S,S)]", "Qualitative label": 1}
{"Compound": "CC[C@H](COc1ccc(Cl)cc1Cl)OS(=O)OCCF (stereo partly drawn) [19-(R,S)]", "Qualitative label": 0}
{"Compound": "CC(C)(COS(=O)OCCF)Oc1ccc(Cl)cc1Cl (stereo not drawn) [R-10′]", "Qualitative label": 0}
{"Compound": "CC[C@H](COS(=O)OCCF)Oc1ccc(Cl)cc1Cl (stereo partly drawn) [19′-(R,S)]", "Qualitative label": 1}
{"Compound": "CC[C@@H](COS(=O)OCCF)Oc1ccc(Cl)cc1Cl (stereo partly drawn) [19′-(S,S)]", "Qualitative label": 0}
{"Compound": "CC(COc1ccc(Cl)cc1Cl)OS(=O)OCCF [1′-(R,S)]", "Qualitative label": 0}
{"Compound": "CCC(COS(=O)OCCF)Oc1ccc(Cl)cc1Cl (stereo not drawn) [Compound 19′]", "Qualitative label": 1}
{"Compound": "CCC(COS(=O)OCCF)Oc1ccc(Cl)cc1Cl [19′-(R,R)]", "Qualitative label": 0}
{"Compound": "C[C@H](COS(=O)OCCF)Oc1ccc(Cl)cc1Cl (stereo partly drawn) [1-(R,S)]", "Qualitative label": 1}
{"Compound": "CC(COc1ccc(Cl)cc1Cl)OS(=O)OCCF [1′-(R,R)]", "Qualitative label": 1}
{"Compound": "CC(COc1ccc(Cl)cc1Cl)OS(=O)OCCF (stereo not drawn) [Compound 1′]", "Qualitative label": 1}
{"Compound": "CCC(COc1ccc(Cl)cc1Cl)OS(=O)OCCF [19-(R,R)]", "Qualitative label": 1}
{"Compound": "C[C@@H](COS(=O)OCCF)Oc1ccc(Cl)cc1Cl (stereo partly drawn) [1-(S,R)]", "Qualitative label": 1}
{"Compound": "CC(COc1ccc(Cl)cc1Cl)OS(=O)OCCF [1′-(S,R)]", "Qualitative label": 0}
{"Compound": "CC[C@@H](COc1ccc(Cl)cc1Cl)OS(=O)OCCF (stereo partly drawn) [19-(S,R)]", "Qualitative label": 0}
{"Compound": "CC(C)(COS(=O)OCCF)Oc1ccc(Cl)cc1Cl (stereo not drawn) [S-10′]", "Qualitative label": 0}
{"Compound": "CCC(COc1ccc(Cl)cc1Cl)OS(=O)OCCF (stereo not drawn) [Compound 19]", "Qualitative label": 1}
{"Compound": "CC(C)(COc1ccc(Cl)cc1Cl)OS(=O)OCCF (stereo not drawn) [Compound S-10]", "Qualitative label": 0}
{"Compound": "CC[C@@H](COS(=O)OCCF)Oc1ccc(Cl)cc1Cl (stereo partly drawn) [19′-(S,R)]", "Qualitative label": 0}

* * *

- Tested on: eggs of Tetranychus urticae
- Test: Effect on hatching of eggs of Tetranychus urticae, leaf disc method
- Format: in vivo
- Experimental conditions: 5 ppm, 5 days after insecticide delivery, Replicate 1

{"Compound": "CC(C)(COS(=O)OCCF)Oc1ccc(Cl)cc1Cl (centres unmarked) [Compound 10′]", "Unit annotation": "%", "Hatching rate (%)": 1.18}
{"Compound": "CCC(COc1ccc(Cl)cc1Cl)OS(=O)OCCF (centres unmarked) [Compound 19]", "Unit annotation": "%", "Hatching rate (%)": 0.00}
{"Compound": "CC[C@@H](COc1ccc(Cl)cc1Cl)OS(=O)OCCF (stereo partly drawn) [19-(S,R)]", "Unit annotation": "%", "Hatching rate (%)": 0.00}
{"Compound": "CC(C)(COS(=O)OCCF)Oc1ccc(Cl)cc1Cl (centres unmarked) [S-10′]", "Unit annotation": "%", "Hatching rate (%)": 0.00}
{"Compound": "CC(C)(COS(=O)OCCF)Oc1ccc(Cl)cc1Cl (centres unmarked) [R-10′]", "Unit annotation": "%", "Hatching rate (%)": 17.72}
{"Compound": "CC(C)(COc1ccc(Cl)cc1Cl)OS(=O)OCCF (centres unmarked) [Compound S-10]", "Unit annotation": "%", "Hatching rate (%)": 0.00}
{"Compound": "CC(COc1ccc(Cl)cc1Cl)OS(=O)OCCF (centres unmarked) [Compound 1′]", "Unit annotation": "%", "Hatching rate (%)": 0.00}
{"Compound": "CC(COS(=O)OCCF)Oc1ccc(Cl)cc1Cl (centres unmarked) [Compound 1]", "Unit annotation": "%", "Hatching rate (%)": 0.94}
